- assay system: porcine pancreas α-amylase (Sus scrofa, UniProt P00690)
- Construct: purchased Sigma-Aldrich A3176
- Sequence (P00690 16-511): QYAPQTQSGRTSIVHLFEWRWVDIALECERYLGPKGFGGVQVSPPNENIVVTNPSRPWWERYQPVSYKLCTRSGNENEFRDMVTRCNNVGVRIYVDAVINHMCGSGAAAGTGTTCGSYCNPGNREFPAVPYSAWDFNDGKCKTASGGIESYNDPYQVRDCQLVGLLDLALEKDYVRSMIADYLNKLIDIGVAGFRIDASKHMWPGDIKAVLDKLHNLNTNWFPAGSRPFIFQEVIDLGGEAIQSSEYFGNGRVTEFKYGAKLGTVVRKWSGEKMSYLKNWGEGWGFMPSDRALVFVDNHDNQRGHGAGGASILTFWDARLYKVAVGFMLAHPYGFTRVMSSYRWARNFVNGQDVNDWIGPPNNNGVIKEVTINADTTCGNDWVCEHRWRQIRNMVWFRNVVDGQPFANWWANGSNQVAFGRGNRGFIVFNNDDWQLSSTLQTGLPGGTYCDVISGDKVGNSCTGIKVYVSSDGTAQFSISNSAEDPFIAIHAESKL
- assay summary: Assay for α-amylase inhibition (potato starch substrate, iodine, absorbance at 650 nm)
- Assay type: biochemical
- study conditions: porcine pancreas α-amylase; tested three times; mean ± SD
Record form. Attribute: IC50. Fill in for each entry.
Kindly answer with a numeric value in µM, unit omitted.

Enquiry: Missing value: IC50, porcine pancreas α-amylase (Sus scrofa, UniProt P00690), entry C[C@@H]1CC[C@]2(C(=O)O)CC[C@]3(C)C(=CC[C@@H]4[C@@]5(C)CC[C@H](O)C(C)(C)[C@@H]5CC[C@]43C)[C@@H]2[C@]1(C)O . Fill in?
Return: 837

Enquiry: Report IC50 for COc1cc(-c2cc(=O)c3c(O)c(OC)c(O)cc3o2)ccc1O tested on porcine pancreas α-amylase (Sus scrofa, UniProt P00690).
Return: 342
